Here's a batch of molecules along with measured log10 of IC50 for r cathepsin S (Homo sapiens).
Annotation: log10 of IC50, nM basis.

Suppose we examine the molecule CC(C)C[C@H](NC(=O)OCc1ccccc1)C(=O)NC1=CNC(C(C)(C)C)NC1=O (stereo partly shown) [Example 8] ; what log10 of IC50 value has been reported?
2.68

Subsequent entry: CC(C)C[C@H](NC(=O)c1cc2ccccc2s1)C(=O)NC1=CNC(c2ccccc2F)NC1=O (stereo partly shown) [Example 21]
1.57

Subsequent entry: CC(C)C[C@H](NC(=O)OCc1ccccc1)C(=O)NC1=CNC(c2ccncc2)NC1=O (stereo partly shown) [Example 9]
1.74

Subsequent entry: CC(C)C[C@H](NC(=O)OCc1ccccc1)C(=O)NC1=CNC(c2ccccc2)NC1=O (stereo partly shown) [Example 1]
2.66

Subsequent entry: CC(C)C[C@H](NC(=O)OCc1ccccc1)C(=O)NC1=CNC(c2ccccc2F)NC1=O (stereo partly shown) [Example 2]
2.46

Subsequent entry: CC(C)C[C@H](NC(=O)OCc1ccccc1)C(=O)NC1=CNC2(CCCC2)NC1=O [Example 6]
2.68

* * *

TEST TARGET: r rat cathepsin B (Rattus norvegicus, UniProt P00787)
Sequence (P00787 80-333): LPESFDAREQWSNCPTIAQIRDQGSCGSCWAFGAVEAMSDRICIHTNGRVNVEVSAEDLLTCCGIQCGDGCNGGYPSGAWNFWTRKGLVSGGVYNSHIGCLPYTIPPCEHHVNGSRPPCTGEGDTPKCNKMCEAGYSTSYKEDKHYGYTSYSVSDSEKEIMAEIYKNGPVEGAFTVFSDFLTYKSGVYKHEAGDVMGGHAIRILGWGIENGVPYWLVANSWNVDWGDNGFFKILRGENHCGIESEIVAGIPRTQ
Provide the recorded IC50 for the entries that follow.
Provide the reading as a plain figure in µM.

Suppose we examine the compound CC(C)C[C@H](NC(=O)OCc1ccccc1)C(=O)NC1=CNC(c2ccncc2)NC1=O (stereo partly drawn) ; what IC50 value has been reported?
2.29

Subsequent entry: CC(C)C[C@H](NC(=O)OCc1ccccc1)C(=O)NC1=CNC(C(C)(C)C)NC1=O (stereo partly drawn)
4.56

Subsequent entry: CC(C)C[C@H](NC(=O)OCc1ccccc1)C(=O)NC1=CNC(c2ccccc2)NC1=O (stereo partly drawn)
4.01

* * *

MEASUREMENT NOTES: Pharmacokinetics in mice after single oral dose
Format: in vivo
REPORTED CONDITIONS: mouse, in vivo, single oral dose of 5 mg/kg
Provide the recorded AUC for the entries that follow.
Provide the reading as a plain figure in ng·h/mL.

Suppose we examine the compound CC(C)C[C@H](NC(=O)c1cc2ccccc2s1)C(=O)NC1=CNC(c2ccccc2F)NC1=O (some centres unmarked) ; what AUC value has been reported?
853

Subsequent entry: CC(C)C[C@H](NC(=O)OCc1ccccc1)C(=O)NC1=CNC2(CCCC2)NC1=O
2730

* * *

MEASUREMENT NOTES: Pharmacokinetics in mice after single oral dose
Type: in vivo
REPORTED CONDITIONS: mouse, in vivo, single oral dose of 5 mg/kg
Provide the recorded half-life for the entries that follow.
Provide the reading as a plain figure in h.

Suppose we examine the compound CC(C)C[C@H](NC(=O)OCc1ccccc1)C(=O)NC1=CNC2(CCCC2)NC1=O [Example 6] ; what half-life value has been reported?
1.63

Subsequent entry: CC(C)C[C@H](NC(=O)c1cc2ccccc2s1)C(=O)NC1=CNC(c2ccccc2F)NC1=O (some centres unmarked) [Example 21]
0.54

* * *

Protein target, amino acids: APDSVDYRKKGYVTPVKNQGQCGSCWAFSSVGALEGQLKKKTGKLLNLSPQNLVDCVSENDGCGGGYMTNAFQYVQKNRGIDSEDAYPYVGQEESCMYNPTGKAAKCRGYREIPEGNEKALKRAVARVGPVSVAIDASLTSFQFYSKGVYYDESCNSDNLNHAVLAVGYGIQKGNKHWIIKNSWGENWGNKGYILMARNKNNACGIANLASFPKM
ENDPOINT LABEL: pIC50
Please treat pIC50 as minus the base-10 logarithm of the molar concentration.

Suppose we examine the compound CC(C)C[C@H](NC(=O)OCc1ccccc1)C(=O)NC1=CNC(c2ccccc2)NC1=O (some centres unmarked) ; what pIC50 value has been reported?
6.47

Subsequent entry: CC(C)C[C@H](NC(=O)OCc1ccccc1)C(=O)NC1=CNC2(CCCC2)NC1=O
7.00
